target: Large T antigen (Simian virus 40) (UniProt P03070); experiment: SV40 large T antigen inhibitors, biochemical (AID 1903); conditions: SV40 large T antigen ATPase/helicase inhibition assay; at 20 µM; stronger effect = higher value
Sequence (P03070 whole entry, looked up): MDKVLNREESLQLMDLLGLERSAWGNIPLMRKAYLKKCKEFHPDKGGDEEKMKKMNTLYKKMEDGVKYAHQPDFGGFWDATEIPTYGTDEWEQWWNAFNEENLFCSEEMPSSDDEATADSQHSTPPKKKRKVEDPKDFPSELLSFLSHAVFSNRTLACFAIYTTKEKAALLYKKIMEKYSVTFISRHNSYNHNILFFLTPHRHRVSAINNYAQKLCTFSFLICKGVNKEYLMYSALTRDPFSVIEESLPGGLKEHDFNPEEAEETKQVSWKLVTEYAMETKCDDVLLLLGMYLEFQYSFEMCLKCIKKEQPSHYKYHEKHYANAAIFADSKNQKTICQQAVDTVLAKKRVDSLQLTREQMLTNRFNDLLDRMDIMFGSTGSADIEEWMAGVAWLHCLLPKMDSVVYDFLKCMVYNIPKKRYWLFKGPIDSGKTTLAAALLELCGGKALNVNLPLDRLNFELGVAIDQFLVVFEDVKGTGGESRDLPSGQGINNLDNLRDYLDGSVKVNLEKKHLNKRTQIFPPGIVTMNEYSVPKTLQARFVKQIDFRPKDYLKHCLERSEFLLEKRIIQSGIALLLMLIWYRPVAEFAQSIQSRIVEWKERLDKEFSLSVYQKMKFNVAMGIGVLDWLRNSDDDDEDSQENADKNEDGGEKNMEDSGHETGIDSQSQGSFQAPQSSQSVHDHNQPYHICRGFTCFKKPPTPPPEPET
Hit rate of the full screen: of about 310,000 compounds, about 1,200 (0.39%) were called active. A selection follows. Potency and affinity values are given separately.
ENDPOINT NAME: inhibition (%)
Give bare numbers, in %.

Observe how each entry below is paired with its result.
COC(=O)c1cn(CCOc2ccccc2F)c2ccccc12; 1.53
O=C(Nc1cccc(S(=O)(=O)N2CCCC2)c1)c1cccnc1; 8.88
Clc1cccc(N/N=C/c2ccc(N3CCOCC3)s2)c1; 0.11
C=CCOc1cccc(CNCc2ccncc2)c1; 8.06
Cc1ccc(/C=C/C(=O)c2ccc([N+](=O)[O-])o2)cc1; 24.6
C=CCOc1ccc(CNc2ccc(NC(=O)CCC)cc2)cc1OCC; 18.3

Quick one: give me inhibition for each item below, same order please.
1. O=C(N/N=C/c1ccc(N2CCOCC2)s1)c1ccccc1Br
2. C/C(CC(=O)Nc1ccc2c(c1)OCCO2)=N\NC(=O)c1ccc([N+](=O)[O-])cc1Cl
3. Cc1cc(=O)[nH]c(SCc2ccccc2)n1
4. Cc1cccc(/C=C/C(=O)c2ccc([N+](=O)[O-])o2)c1
5. NC1=NC(=O)/C(=C/c2cc(Br)c(O)c(Br)c2)S1
6. Cc1ccc(S(=O)(=O)N2CCN(Cc3cc(C(C)C)ccc3O)CC2)cc1
7. Cn1c(=O)cc(SCC(=O)Nc2ccccn2)c2ccccc21
8. O=C(/C=C/c1ccc(Cl)cc1)c1ccc([N+](=O)[O-])o1

RESULT:
[28.7, 3.29, -3.07, 27.2, 23.3, -1.91, 18.7, 34.3]

* * *

biological target: Large T antigen (Simian virus 40); experiment: SV40 large T antigen inhibitors, biochemical (AID 1903); conditions: SV40 large T antigen ATPase/helicase inhibition assay; at 20 µM; stronger effect = higher value
Among all 310,000 compounds or so, about 1,200 (0.39%) were called active. Only a sample is shown. Entries with a potency or affinity are not part of this list.
Lab note: anything with inhibition at or over 9% counts as 1; the rest go in -1.

Some solved entries appear below for comparison.
CCCCN(C)CCN1C(=O)C2C(C(=O)Nc3ccc(OC)cc3)C3C=CC2(O3)C1C(=O)NC1CCCCC1 (stereo unspecified); -1
CNC(=S)Nc1cc2oc3ccccc3c2cc1OC; 1
COc1ccc(Oc2nc3ccccc3n3cccc23)cc1; -1
c1coc(-c2nnc(-c3ccco3)nn2)c1; 1
COc1ccc(/C=C\c2nc(O)c([N+](=O)[O-])c(=O)[nH]2)cc1O; -1
O=C(Nc1ccc(-c2ccc3nncn3n2)cc1)C1CCCC1; -1
O=c1[nH]c(/C=C\c2ccc(O)c(Cl)c2)nc(O)c1[N+](=O)[O-]; 1
COc1ccc(OC)c(S(=O)(=O)N2CCC(C(=O)NC3CCCC3)CC2)c1; -1

QUERY: Would you say `Nc1nc(-c2ccc(-n3nncc3-c3ccco3)cc2)cs1` shows inhibition at minimum 9%?
RESULT: 1

QUERY: Would you say COc1cccc2c1O/C(=N\O)C(C(=O)Nc1ccc(C)cc1)C2 (stereo unspecified) shows inhibition at minimum 9%?
RESULT: -1

QUERY: Would you say `O=C(CSc1nc2[nH]ncc2c(=O)[nH]1)Nc1nccs1` shows inhibition at minimum 9%?
RESULT: 1
